system: HilD (Salmonella enterica, UniProt P0CL08)
Sequence (P0CL08 whole entry): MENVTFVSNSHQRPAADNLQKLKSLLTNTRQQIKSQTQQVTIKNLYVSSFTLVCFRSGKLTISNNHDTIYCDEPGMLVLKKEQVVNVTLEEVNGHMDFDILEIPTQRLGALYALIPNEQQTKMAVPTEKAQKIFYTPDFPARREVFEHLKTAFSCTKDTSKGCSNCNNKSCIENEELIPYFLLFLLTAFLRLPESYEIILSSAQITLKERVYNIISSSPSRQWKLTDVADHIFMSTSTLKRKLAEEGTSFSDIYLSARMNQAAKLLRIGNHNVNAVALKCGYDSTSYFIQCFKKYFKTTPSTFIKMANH
assay-remarks: MST; supported by HDX-MS, nanoDSF and BS3 cross-linking
Type: binding
Parameters: EYFP-HilD (full-length HilD with N-terminal EYFP tag)
experimental-context: read-out: Kd ± SD
test-readout: Kd

>>> measurement("CCCCCCCC/C=C\\CCCCCCCC(=O)O [oleic acid]")
"15 µM"

----------
system: HilD (Salmonella enterica, UniProt P0CL08)
assay-remarks: MST
Assay type: binding
Parameters: EYFP-HilD (full-length HilD with N-terminal EYFP tag)
experimental-context: read-out: Kd ± SD
test-readout: Kd

>>> measurement("CCCCCCCC/C=C\\CCCCCCCCCCCC(=O)O [erucic acid]")
"12.8 µM"

----------
system: HilD (Salmonella enterica)
assay-remarks: biochemical
Set-up: EYFP-HilD (full-length HilD with N-terminal EYFP tag); microscale thermophoresis, fatty acid titrated against EYFP-HilD in presence of Pluronic F-127, MST on-time 1.5 s
experimental-context: in presence of Pluronic F-127; read-out: Kd ± SD
pKd: −log10 of the molar value.
test-readout: pKd

>>> measurement("CCCC/C=C\\CCCCCCCC(=O)O")
3.25
>>> measurement("CCCCCCCC/C=C\\CCCCCCCC(=O)OC [Methyl Oleate]")
3.13
>>> measurement("CCCCCCCC/C=C\\CCCCCCCCCCCC(=O)O")
4.83

----------
system: HilD (Salmonella enterica, UniProt P0CL08, R267A)
Construct: HilD point mutant
assay-remarks: MST
test-readout: Kd (µM)

>>> measurement("CCCCCCCC/C=C\\CCCCCCCC(=O)O [oleic acid]")
39.4

----------
system: HilD (Salmonella enterica, UniProt P0CL08, E102A)
Construct: HilD point mutant
assay-remarks: MST
pKd: −log10 of the molar value.
test-readout: pKd

>>> measurement("CCCCCCCC/C=C\\CCCCCCCC(=O)O [oleic acid]")
4.41
